# System under test: PABPC1 RRM2 (human, UniProt P11940 100-190)
# Sequence (P11940 100-190): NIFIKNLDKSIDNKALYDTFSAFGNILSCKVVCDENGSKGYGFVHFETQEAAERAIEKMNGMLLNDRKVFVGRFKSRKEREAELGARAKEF
# Assay comment: ITC
Measured metric: pKd
Scale: negative log10 of molar concentration, which is what pKd denotes.

Query AAAAAAAAAAAA (ssRNA) [A12] yields pKd of 4.15

Query AAAAAAA (ssRNA) [A7] yields pKd of 3.70
